# Tested on: spontaneously hypertensive rats (SHR)
# runDescription: Antihypertensive activity test: blood pressure and heart rate of spontaneously hypertensive rats (SHR)
# Type: in vivo, rat
# setupConditions: 200 mg/kg, 5 h
Where a name gives a salt, the structure may show the parent alone.
Quick rule for you: SBP Difference before and after administration, 5 h at 5 mmHg or higher means fulfilled, lower means not fulfilled.

> print(dat)
                                   molecule  qualitativelabel
1  CC(=O)OC(C)C(OC(C)=O)c1ccccc1 (centres unmarked)         fulfilled
2       CCc1ccccc1C(O)CO (centres unmarked)         fulfilled
3     CCc1ccc(C(O)CO)cc1 (centres unmarked)     not fulfilled
4  CCc1cccc(C(CO)OC(=O)CN)c1 (centres unmarked)         fulfilled
5          COc1ccc([C@@H](O)[C@H](C)O)cc1Cl     not fulfilled
6  OCC(O)C(OC1OC(CO)C(O)C(O)C1O)c1ccc(O)cc1 (centres unmarked)         fulfilled
7      Cc1cccc(C(O)CO)c1 (centres unmarked)     not fulfilled
8  CC(=O)c1ccc(C(O)CO)cc1 (centres unmarked)         fulfilled
9  COCCc1ccc(OCC(O)CNC(C)C)cc1 (centres unmarked) [Metoprolol Hydrochloride, reference compound]         fulfilled

---

# System: monocrotaline-induced pulmonary hypertension model rats (MCT-PAH)
# runDescription: Monocrotaline-induced pulmonary hypertension model rats, aerosol inhalation treatment
# Format: in vivo, SD rats
# setupConditions: 30 mg/kg, inh, 28 days
mPAP for assorted compounds
metricName: mPAP (mmHg)

> print(dat)
                                   compound  numericvalue
1  COc1cccc(C(O)CO)c1 (stereo not drawn) [Compound 8]         14.16
2  OCC(O)c1cccc(F)c1 (stereo not drawn) [Compound 7]         12.45
3  CCc1cccc(C(COC(C)=O)OC(C)=O)c1 (stereo not drawn) [Compound 30]         16.00
4  CCc1cccc(C(CO)OC2OC(CO)C(O)C(O)C2O)c1 (stereo not drawn) [Compound 16]         14.76
5  CCc1ccccc1C(O)CO (stereo not drawn) [Compound 5]         11.06
6  CCc1cccc(C(O)CO)c1 (stereo not drawn) [Compound 1, 1-(3-ethylphenyl)-1,2-ethylene glycol]          8.06

---

Blood pressure (SBP, mmHg) After administration for assorted compounds
# System: spontaneously hypertensive rats (SHR)
# runDescription: Antihypertensive activity test: blood pressure and heart rate of spontaneously hypertensive rats (SHR)
# Assay type: in vivo, rat
# setupConditions: 200 mg/kg, after administration (6 h M ± SD), n = 8
Where a name gives a salt, the structure may show the parent alone.
metricName: Blood pressure (SBP, mmHg) After administration

> print(dat)
                                   compound           result
1  COCCc1ccc(OCC(O)CNC(C)C)cc1 (centres unmarked) [Metoprolol Hydrochloride, reference compound]  164 ± 7.85 mmHg
2     CCC(O)c1cccc(CO)c1 (centres unmarked)  178 ± 11.2 mmHg
3     CCc1cccc(C(O)CO)c1 (centres unmarked)  174 ± 4.01 mmHg
4     CCc1ccc(C(O)CO)cc1 (centres unmarked)  181 ± 13.2 mmHg
5      Cc1ccc(C(O)CO)cc1 (centres unmarked)  181 ± 8.80 mmHg

Sourced from patent US12180146B2
